Catalogue of Plant response rating, Velvetleaf values
- Test system: velvetleaf (Abutilon theophrasti)
- ASSAY: Test B pre-/postemergence plant response
- Assay type: in vivo
- PARTICULARS: 125 g ai/ha, postemergence; 0 to 100 scale, 0 no effect, 100 complete control
- Source text: […]
Simply state the number, no unit and no words.

GET /value?item= `FC(F)(F)c1cc(-c2ccccc2Oc2ncc(Br)cn2)on1` &field=Plant response rating, Velvetleaf returns 100

GET /value?item= `Cn1nc(C(F)(F)F)cc1-c1ccccc1Oc1ncc(Br)cn1` &field=Plant response rating, Velvetleaf returns 10

---

Catalogue of Plant response rating, Kochia values
- Test system: kochia (Kochia scoparia)
- ASSAY: Test D postemergence plant response
- Type: in vivo
- PARTICULARS: 62 g ai/ha, scale 0 to 100, 0 no effect, 100 complete control
Simply state the number, no unit and no words.

GET /value?item= `FC(F)(F)c1cc(-c2c(Br)cccc2Oc2ncc(Cl)cn2)no1` &field=Plant response rating, Kochia returns 85

GET /value?item= `FC(F)c1cc(-c2c(Cl)cccc2Oc2ncc(Cl)cn2)no1` &field=Plant response rating, Kochia returns 100

GET /value?item= `Fc1cccc(Oc2ncc(Cl)cn2)c1-c1cc(C2CC2)on1` &field=Plant response rating, Kochia returns 100

Let us move to another entry and its Plant response rating, Kochia.
GET /value?item= `Cc1cc(-c2ccccc2Oc2ncc(Cl)cn2)no1` &field=Plant response rating, Kochia returns 55
